# tested system: T1, HCV Core1-169 (HCV-1, UniProt P26664 1-169)
# T1 construct: also called Solid Phase HCV Core
# T1 sequence: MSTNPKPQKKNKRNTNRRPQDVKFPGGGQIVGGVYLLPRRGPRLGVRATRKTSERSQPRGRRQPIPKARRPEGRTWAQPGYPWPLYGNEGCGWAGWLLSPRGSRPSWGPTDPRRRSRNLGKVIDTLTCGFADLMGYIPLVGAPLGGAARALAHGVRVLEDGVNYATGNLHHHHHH
# assay protocol: sandwich EIA, capture 208B-1096

binder	OD492 (OD)
HCV 208B-612 (antibody, V domains shown) VH: EVQLQQSGPELVKPGASVKMSCKASGYRFTSYVMHWVRQKPGQGLEWIGYIDPHNDDTKYSEKFRGKATLTSDKSSTTAYMELSSLTSEDSAVYYCVRYSYDRDYSPMDYWGQGTSVTVSS VL: QIVLTQSPTLMSASPGEKVTMTCSASSTVTYIYWYQQKPGSSPRLWMYDTFNLVSGVPARFSGSRSGTSYFLTISSMEGEDAATYYCQQYSDSPYTFGGGTKLEIKR	0.7
HCV 208A-293 (antibody, V domains shown) VH: EVQLQQSGPELVKPGASVKISCKASGFTFTEYAMHWMKQSHGKSLEWIGGINPTNGDAIYNQKFKDKAKLTVDRSSSTAYMELRSLTSDDSALFYCARRELDYFPSWGQGTTLTVSS VL: DIVLTQSPASLIVSLGQRATISCRASQSVSTSRFSYVHWIQQKPGQPPKLLIKYASNLESGVPVRFSGSGSGTDFILNIHPVEEEDTATYFCQHSWEFPFTFGSGTKLEIKR	0.41
HCV 208B-395 (antibody, V domains shown) VH: QVQLQQSGAGLAKPGASVKMSCKASGYTFTANKMHWTKQRPGQGLEWIGYIDPSSGYTQYNHKIQDKATLTADTSSSTAYMQLSSLTFEDSAVYYCTNFAYWGQGTLVTVSA VL: DIVLTQSPATLSVTPGDRVSLSCRASQRIYNYLHWYQQKSHESPRLLIKYASQSISGIPSRFSGSGSGTDFILTINSVETEDFGMYFCQQSNSWPLTFGAGTKLELRR	0.23
HCV 208A-741 (antibody, V domains shown) VH: QLQQSGPVLVKPGASVMISCKTSGYTFTENAMHWVKQSHGKSLEWIGGVNPNNGDTIFNQKFKGKATLTVDKSSSTAFMELRSLTSEESTVYYCVRRELDFFDYWGQGTSVTVSS VL: DIVLTQSPASLAVSLGQRTTISCGASQSVSTSRFSYMHWYQQKPGQPPKLLIKYASNLESGVPARFSGSGSGTDFTLNIHPVAEEDTAAYYCQHSWEFPFTFGSGTKLEIKR	0.52
HCV 208A-557 (antibody, V domains shown) VH: QGQMQQSGAELVKPGASVKLSCKTSGFTFSSSYISWLKQKPGQSLEWIAWIYAGTGNTNYNQKFTDKAQLTVDTSSSTAYMQLSSLTTEDSAIYYCAISGTGFTYWGQGTLVTVSA VL: DIALTQSPASLAVSLGQRATISCRASQSVSTSRYSYMHWYQQKPGQPPELLIKYASNLESGVPARFSGSGSGTDFTLNIHPVGEEDTATYYCQHSWDFPFTFGSGTKLEIKR	0.35
